pIC50 overview
- studyTarget: NS5B polymerase (Hepatitis C virus genotype 1b, UniProt P26663)
- Sequence (P26663 2420-3010): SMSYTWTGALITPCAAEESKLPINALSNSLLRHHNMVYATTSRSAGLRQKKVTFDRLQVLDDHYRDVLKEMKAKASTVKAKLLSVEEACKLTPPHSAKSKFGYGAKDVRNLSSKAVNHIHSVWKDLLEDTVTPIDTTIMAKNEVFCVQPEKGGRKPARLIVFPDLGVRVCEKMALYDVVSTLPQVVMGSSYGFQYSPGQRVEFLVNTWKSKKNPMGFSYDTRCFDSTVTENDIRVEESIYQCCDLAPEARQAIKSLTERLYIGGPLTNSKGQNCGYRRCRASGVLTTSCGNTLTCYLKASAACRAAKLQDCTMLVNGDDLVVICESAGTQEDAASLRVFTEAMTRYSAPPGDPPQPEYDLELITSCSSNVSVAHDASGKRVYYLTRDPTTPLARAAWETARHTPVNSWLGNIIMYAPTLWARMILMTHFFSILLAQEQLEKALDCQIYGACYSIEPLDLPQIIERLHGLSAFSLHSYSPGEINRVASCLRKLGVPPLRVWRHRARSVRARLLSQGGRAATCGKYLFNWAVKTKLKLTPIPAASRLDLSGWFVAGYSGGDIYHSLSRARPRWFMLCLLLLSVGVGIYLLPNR
- testName: biochemical
- conditionsUsed: NS5B polymerase inhibition; 20 nM enzyme, 75 min at 28° C.; read-out: IC50
pIC50: −log10 of the molar value.
endpoint: pIC50

[
  {
    "compound": "CC(C)CCN1C(=O)C(C2=NS(=O)(=O)c3cc(NS(C)(=O)=O)ccc3N2)=C(O)C2C3CCC(O3)C21 (racemic)",
    "endpoint": "pIC50",
    "result": "> 7.70"
  },
  {
    "compound": "Cc1cc(CN2C(=O)C(C3=NS(=O)(=O)c4cc(NS(C)(=O)=O)ccc4N3)=C(O)C3C4CCC(O4)C32)ccc1F (racemic)",
    "endpoint": "pIC50",
    "result": "> 7.70"
  },
  {
    "compound": "CC(C)(C)CCN1C(=O)C(C2=NS(=O)(=O)c3cc(NS(C)(=O)=O)ccc3N2)=C(O)C2C3C=CC(C3)C21 (racemic)",
    "endpoint": "pIC50",
    "result": "7.00 to 7.70"
  },
  {
    "compound": "CS(=O)(=O)Nc1ccc2c(c1)S(=O)(=O)N=C(C1=C(O)C3C([C@@H]4CC[C@H]3C4)N(C3CCCC3)C1=O)N2 (stereo partly drawn)",
    "endpoint": "pIC50",
    "result": "6.00 to 7.00"
  },
  {
    "compound": "O=C1C(C2=NS(=O)(=O)c3cc(C4CCCS4(=O)=O)ccc3N2)=C(O)[C@@H]2[C@H]3CC[C@H](C3)[C@@H]2N1Cc1ccc(F)cc1 (stereo partly drawn)",
    "endpoint": "pIC50",
    "result": "7.00 to 7.70"
  },
  {
    "compound": "CS(=O)(=O)Nc1ccc2c(c1)S(=O)(=O)N=C(C1=C(O)C3C4CCC(O4)C3N(CCC3CC3)C1=O)N2 (racemic)",
    "endpoint": "pIC50",
    "result": "> 7.70"
  },
  {
    "compound": "Cc1cc(CN2C(=O)C(C3=NS(=O)(=O)c4cc(NS(C)(=O)=O)ccc4N3)=C(O)[C@H]3[C@@H]2[C@@H]2CC[C@H]3O2)ccc1F",
    "endpoint": "pIC50",
    "result": "> 7.70"
  },
  {
    "compound": "CC(C)OC(=O)N(c1ccc2c(c1)S(=O)(=O)N=C(C1=C(O)C3C([C@@H]4CC[C@H]3C4)N(C3CCCC3)C1=O)N2)S(C)(=O)=O (stereo partly drawn)",
    "endpoint": "pIC50",
    "result": "4.00 to 6.00"
  },
  {
    "compound": "CC(C)CCN1C(=O)C(C2=NS(=O)(=O)c3cc(NS(=O)(=O)C4CC4)ccc3N2)=C(O)C2C3C=CC(C3)C21 (racemic)",
    "endpoint": "pIC50",
    "result": "7.00 to 7.70"
  },
  {
    "compound": "O=C1C(C2=NS(=O)(=O)c3cc(NS(=O)(=O)C4CC4)ccc3N2)=C(O)C2C3C=CC(C3)C2N1Cc1ccc(F)cc1 (racemic)",
    "endpoint": "pIC50",
    "result": "> 7.70"
  },
  {
    "compound": "CC(C)(C)CCN1C(=O)C(C2=NS(=O)(=O)c3cc(NS(C)(=O)=O)ccc3N2)=C(O)C2C3CCC(O3)C21 (racemic)",
    "endpoint": "pIC50",
    "result": "7.00 to 7.70"
  },
  {
    "compound": "CC(C)CCN1C(=O)C(C2=NS(=O)(=O)c3cc(N4CCCC4)ccc3N2)=C(O)[C@@H]2[C@H]3CC[C@H](C3)[C@@H]21",
    "endpoint": "pIC50",
    "result": "4.00 to 6.00"
  },
  {
    "compound": "CC(C)CCN1C(=O)C(C2=CS(=O)(=O)c3cc(NS(C)(=O)=O)ccc3N2)=C(O)C2C3C=CC(C3)C21 (racemic)",
    "endpoint": "pIC50",
    "result": "7.00 to 7.70"
  },
  {
    "compound": "CS(=O)(=O)Nc1ccc2c(c1)S(=O)(=O)N=C(C1=C(O)[C@H]3[C@H]4CC[C@H]([C@@H]5C[C@@H]54)[C@H]3N(Cc3ccc(F)cc3)C1=O)N2 (racemic)",
    "endpoint": "pIC50",
    "result": "7.00 to 7.70"
  },
  {
    "compound": "CC(C)(C)CCN1C(=O)C(C2=NS(=O)(=O)c3cc(NS(=O)(=O)C4CC4)ccc3N2)=C(O)C2C3C=CC(C3)C21 (racemic)",
    "endpoint": "pIC50",
    "result": "7.00 to 7.70"
  },
  {
    "compound": "O=C1C(C2=NS(=O)(=O)c3ccccc3N2)=C(O)[C@@H]2[C@H]3CC[C@H](C3)[C@@H]2N1Cc1ccc(F)cc1",
    "endpoint": "pIC50",
    "result": "6.00 to 7.00"
  },
  {
    "compound": "CS(=O)(=O)Nc1ccc2c(c1)S(=O)(=O)N=C(C1=C(O)[C@@H]3[C@H]4CC[C@H](C4)[C@@H]3N(Cc3ccc(F)c(Cl)c3)C1=O)N2",
    "endpoint": "pIC50",
    "result": "> 7.70"
  },
  {
    "compound": "CC(C)CCN1C(=O)C(C2=NS(=O)(=O)c3cc(NS(C)(=O)=O)ccc3N2)=C(O)C2C3C=CC(C3)C21 (racemic)",
    "endpoint": "pIC50",
    "result": "7.00 to 7.70"
  },
  {
    "compound": "O=C1C(C2=NS(=O)(=O)c3cc(NS(=O)(=O)c4ccccc4)ccc3N2)=C(O)[C@@H]2[C@H]3CC[C@H](C3)[C@@H]2N1Cc1ccc(F)cc1",
    "endpoint": "pIC50",
    "result": "7.00 to 7.70"
  },
  {
    "compound": "O=C1C(C2=NS(=O)(=O)c3cc(Br)cnc3N2)=C(O)C2C([C@@H]3CC[C@H]2C3)N1Cc1ccc(F)cc1 (stereo partly drawn)",
    "endpoint": "pIC50",
    "result": "4.00 to 6.00"
  },
  {
    "compound": "CS(=O)(=O)Nc1ccc2c(c1)S(=O)(=O)C=C(C1=C(O)C3C4C=CC(C4)C3N(Cc3ccc(F)cc3)C1=O)N2 (racemic)",
    "endpoint": "pIC50",
    "result": "> 7.70"
  },
  {
    "compound": "CN(c1ccc2c(c1)S(=O)(=O)N=C(C1=C(O)[C@@H]3[C@H]4CC[C@H](C4)[C@@H]3N(Cc3ccc(F)c(F)c3)C1=O)N2)S(C)(=O)=O",
    "endpoint": "pIC50",
    "result": "7.00 to 7.70"
  },
  {
    "compound": "NS(=O)(=O)Nc1ccc2c(c1)S(=O)(=O)N=C(C1=C(O)[C@@H]3[C@H]4CC[C@H](C4)[C@@H]3N(Cc3ccc(F)cc3)C1=O)N2",
    "endpoint": "pIC50",
    "result": "> 7.70"
  },
  {
    "compound": "O=C1C(C2=NS(=O)(=O)c3cccnc3N2)=C(O)[C@@H]2[C@H]3CC[C@H](C3)[C@@H]2N1Cc1ccc(F)cc1",
    "endpoint": "pIC50",
    "result": "6.00 to 7.00"
  }
]

Source: patent US8765741B2
